B1: TPR t1 (parent)
chain: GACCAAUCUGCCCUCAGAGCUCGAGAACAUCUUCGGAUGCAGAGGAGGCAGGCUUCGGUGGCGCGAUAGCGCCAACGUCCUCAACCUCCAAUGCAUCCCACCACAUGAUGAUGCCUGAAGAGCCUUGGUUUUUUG

Variants of: B1
Test: polymerase ribozyme fitness, log enrichment relative to wild type (log ratio); higher = more active; in vitro selection for triplet polymerase activity
Quick rule: polymerase ribozyme fitness (log ratio) of at least -4 means TRUE, below that means FALSE.

# variantKey, classLabel
records = [
    ("G120A", "TRUE"),
    ("A16G U92G C98G C114A", "FALSE"),
    ("U59G C72A", "TRUE"),
    ("A41G U112C", "TRUE"),
    ("A18U U78G U96G", "FALSE"),
    ("C11G C40U U87G C115U", "TRUE"),
    ("A2U C99U", "FALSE"),
    ("U7A C20G U78C", "FALSE"),
    ("A5C C28U G57C", "TRUE"),
    ("C40G G48U C82A", "TRUE"),
]
